# assay system: T1, Mtr4 E1033A (Saccharomyces cerevisiae, UniProt P47047 1-1073, E1033A)
# T1 sequence: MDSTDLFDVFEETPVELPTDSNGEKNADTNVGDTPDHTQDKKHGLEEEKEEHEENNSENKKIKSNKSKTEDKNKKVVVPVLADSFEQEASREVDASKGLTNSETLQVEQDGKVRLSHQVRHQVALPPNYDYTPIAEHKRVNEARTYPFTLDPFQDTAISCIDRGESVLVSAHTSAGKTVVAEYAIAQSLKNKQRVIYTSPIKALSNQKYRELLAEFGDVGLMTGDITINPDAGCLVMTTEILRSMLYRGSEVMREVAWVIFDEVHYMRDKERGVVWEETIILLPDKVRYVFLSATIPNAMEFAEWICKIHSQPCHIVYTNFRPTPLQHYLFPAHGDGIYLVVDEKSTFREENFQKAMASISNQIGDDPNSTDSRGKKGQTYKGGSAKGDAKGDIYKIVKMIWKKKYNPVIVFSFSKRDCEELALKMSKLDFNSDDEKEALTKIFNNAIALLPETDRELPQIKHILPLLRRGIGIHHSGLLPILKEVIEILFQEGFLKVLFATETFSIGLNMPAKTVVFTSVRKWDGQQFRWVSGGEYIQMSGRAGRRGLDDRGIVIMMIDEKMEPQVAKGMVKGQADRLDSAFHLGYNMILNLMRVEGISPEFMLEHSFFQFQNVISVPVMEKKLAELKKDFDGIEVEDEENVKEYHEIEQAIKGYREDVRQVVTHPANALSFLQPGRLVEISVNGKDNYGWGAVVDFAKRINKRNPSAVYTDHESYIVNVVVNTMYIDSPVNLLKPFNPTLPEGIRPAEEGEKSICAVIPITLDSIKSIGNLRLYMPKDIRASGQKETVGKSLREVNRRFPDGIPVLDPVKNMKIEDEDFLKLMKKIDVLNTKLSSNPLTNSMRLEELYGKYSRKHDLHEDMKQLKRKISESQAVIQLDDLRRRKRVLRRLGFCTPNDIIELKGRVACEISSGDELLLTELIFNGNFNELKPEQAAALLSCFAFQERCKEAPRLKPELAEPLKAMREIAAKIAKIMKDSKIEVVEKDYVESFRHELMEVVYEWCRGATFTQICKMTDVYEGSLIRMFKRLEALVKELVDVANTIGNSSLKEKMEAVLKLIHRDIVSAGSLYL
# test summary: fluorescence anisotropy; 0.5 mM MgCl2; FA: 40 mM MOPS pH 6.5, 100 mM NaCl, 0.5 mM MgCl2, 5% glycerol, 0.01% NP-40 substitute, 2 mM DTT, 60 nM RNA, 30 C; EMSA conditions not in material
# condition info: protein: recombinant; tags: vector pET151/D-TOPO; label: 3' fluorescein on R16; 3' overhang 6 nt (UAAAAA) on R22A, other end blunt; 16 bp
attribute measured: pKd
Please report pKd as the negative decimal logarithm of the molar concentration, giving only the number.

Reported pKd for poly(A) substrate R22A/R16, fluorescein (dsRNA) RNA 1: GCGUCUUUACGGUGCUUAAAAA RNA 2: AGCACCGUAAAGACGC : what is it?
5.70
